assay: The drug is tested on Bacteroides vulgatus strain: DSM1447 for biotransformation under anaerobic condition. The drug concentrations were measured over 6 timepoints collected between 0 and 12 hours of incubation by liquid-chromatography-coupled mass spectrometry (LC–MS); type: ADME; set-up: dose 5 uM, timepoint 0, 1.5, 3, 6, 9, 12 hours; settings: phocaeicola vulgatus, 5 µM

molecule	Bacterial Biotransformation
CO[C@H]1C[C@@H]2CC[C@@H](C)[C@@](O)(O2)C(=O)C(=O)N2CCCC[C@H]2C(=O)O[C@H]([C@H](C)C[C@@H]2CC[C@@H](OCCO)[C@H](OC)C2)CC(=O)[C@H](C)/C=C(\C)[C@@H](O)[C@@H](OC)C(=O)[C@H](C)C[C@H](C)/C=C/C=C/C=C/1C	Compound NOT metabolized
C[C@]12C=CC(=O)C=C1CC[C@@H]1[C@@H]2[C@@H](O)C[C@@]2(C)[C@H]1CC[C@]2(O)C(=O)CO	Compound NOT metabolized
CC(C)NCC(O)COc1ccc(CC(N)=O)cc1 (stereo not drawn)	Compound NOT metabolized

====

assay: The drug is tested on Coprococcus comes strain: ATCC27758 for biotransformation under anaerobic condition. The drug concentrations were measured over 6 timepoints collected between 0 and 12 hours of incubation by liquid-chromatography-coupled mass spectrometry (LC–MS); assay type: ADME; set-up: dose 5 uM, timepoint 0, 1.5, 3, 6, 9, 12 hours; conditions: 5 µM

molecule	Bacterial Biotransformation
C[C@]12C=CC(=O)C=C1CC[C@@H]1[C@@H]2C(=O)C[C@@]2(C)[C@H]1CC[C@]2(O)C(=O)CO [PREDNISONE]	Compound NOT metabolized
C[C@]12C=CC(=O)C=C1CC[C@@H]1[C@@H]2[C@@H](O)C[C@@]2(C)[C@H]1CC[C@]2(O)C(=O)CO [PREDNISOLONE]	Compound NOT metabolized

====

test: The drug is tested on Lactobacillus fermentum strain: DSM20052 for biotransformation under anaerobic condition. The drug concentrations were measured over 6 timepoints collected between 0 and 12 hours of incubation by liquid-chromatography-coupled mass spectrometry (LC–MS); format: ADME; parameters: dose 5 uM, timepoint 0, 1.5, 3, 6, 9, 12 hours; settings: limosilactobacillus fermentum, 5 µM
metric: Bacterial Biotransformation

compound	Bacterial Biotransformation
C[C@H]1C[C@@H]2[C@H]([C@@H](O)C[C@@]3(C)[C@H]2CC[C@]3(O)C(=O)CO)[C@@]2(C)C=CC(=O)C=C12	Compound NOT metabolized
CO[C@H]1C[C@@H]2CC[C@@H](C)[C@@](O)(O2)C(=O)C(=O)N2CCCC[C@H]2C(=O)O[C@H]([C@H](C)C[C@@H]2CC[C@@H](O)[C@H](OC)C2)CC(=O)[C@H](C)/C=C(\C)[C@@H](O)[C@@H](OC)C(=O)[C@H](C)C[C@H](C)/C=C/C=C/C=C/1C	Compound NOT metabolized
C[C@H]1C[C@H]2[C@@H]3CCC4=CC(=O)C=C[C@]4(C)[C@@]3(F)[C@@H](O)C[C@]2(C)[C@@]1(O)C(=O)CO	Compound NOT metabolized
CCCC1O[C@@H]2C[C@H]3[C@@H]4CCC5=CC(=O)C=C[C@]5(C)[C@H]4[C@@H](O)C[C@]3(C)[C@]2(C(=O)CO)O1 (stereo not given in full) [BUDESONIDE]	Compound NOT metabolized

[ask] Bacterial Biotransformation for C[C@]12CCC(=O)C=C1CC[C@@H]1[C@@H]2[C@@H](O)C[C@@]2(C)[C@H]1CC[C@]2(O)C(=O)CO [HYDROCORTISONE] ?
[reply] Compound NOT metabolized
